- System: Plasmodium falciparum
- protocol.description: Antimalarial activity against blood stage forms of Plasmodium falciparum 3D7
- Format: functional, organism-based
Hi there, I'd appreciate the recorded IC50 for every entry that follows.
Answers are plain numbers, in nM.

Below, each entry is followed by its recorded IC50 result.
CCOC(=O)Oc1c(C)c(-c2ccc(Oc3ccc(OC(F)(F)F)cc3)cc2)nc2ccccc12    60
Cc1c(-c2ccc(Oc3ccc(OC(F)(F)F)cc3)cc2)n(O)c2ccccc2c1=O    35
Cc1c(-c2ccc(Cc3ccc(OC(F)(F)F)cc3)cc2)[nH]c2cc(O)ccc2c1=O    139
Cc1c(-c2ccc(Cc3ccc(OC(F)(F)F)cc3)cc2)[nH]c2cc(F)c(Cl)cc2c1=O    70
O=c1c(Cl)c(-c2ccc(Cc3ccc(OC(F)(F)F)cc3)cc2)[nH]c2ccccc12    19
Cc1c(-c2ccc(Cc3ccc(OC(F)(F)F)cc3)cc2)[nH]c2cc(F)ccc2c1=O    69
Cc1[nH]c2ccccc2c(=O)c1-c1ccc(Cc2ccc(OC(F)(F)F)cc2)cc1    36
CCOC(=O)Oc1c(C)c(-c2ccc(Cc3ccc(OC(F)(F)F)cc3)cc2)nc2ccccc12    27

// for each compound in input: emit IC50
1. O=c1c(-c2ccc(Oc3ccc(OC(F)(F)F)cc3)cc2)c(CO)[nH]c2ccccc12
2. Cc1c(-c2ccc(Cc3ccc(OC(F)(F)F)cc3)cc2)[nH]c2c(O)cccc2c1=O
3. O=c1c(-c2ccc(Oc3ccc(OC(F)(F)F)cc3)cc2)c[nH]c2ccccc12
4. Cc1c(-c2cccc(Cc3ccc(OC(F)(F)F)cc3)c2)[nH]c2cc(Cl)ccc2c1=O

Result:
[91, 819, 797, 34]

// for each compound in input: emit IC50
1. Cc1c(-c2ccc(C(F)(F)F)cc2)[nH]c2ccccc2c1=O
2. O=c1c(CO)c(-c2ccc(Oc3ccc(OC(F)(F)F)cc3)cc2)[nH]c2cc(Cl)ccc12
3. O=c1cc(-c2ccc(Cc3ccc(OC(F)(F)F)cc3)cc2)[nH]c2ccc(N3CCNCC3)cc12
4. COc1ccc2c(=O)c(C)c(-c3ccc(Cc4ccc(OC(F)(F)F)cc4)cc3)[nH]c2c1
5. Cc1c(-c2ccc(Cc3ccc(OC(F)(F)F)cc3)cc2)[nH]c2ncccc2c1=O
6. CC(=O)Oc1cccc2c(=O)c(C)c(-c3ccc(Cc4ccc(OC(F)(F)F)cc4)cc3)[nH]c12

Result:
1. 752
2. 200
3. 430
4. 8
5. 407
6. 408

// for each compound in input: emit IC50
1. Cc1c(-c2ccc(Oc3ccc(Cl)cc3)cc2)[nH]c2ccccc2c1=O
2. Cc1c(-c2ccc(Cc3ccc(OC(F)(F)F)cc3)cc2)n(O)c2cc(Cl)ccc2c1=O
3. Cc1c(-c2ccc(Cc3ccc(OC(F)(F)F)cc3)cc2)[nH]c2cc(C(F)(F)F)ccc2c1=O
4. O=c1cc(-c2ccc(C(F)(F)F)cc2)[nH]c2ccccc12
5. O=c1c(CO)c(-c2ccc(Cc3ccc(OC(F)(F)F)cc3)cc2)[nH]c2cc(Cl)ccc12

Result:
1. 230
2. 149
3. 212
4. 579
5. 63

// for each compound in input: emit IC50
1. COc1ccc2[nH]c(-c3ccc(Cc4ccc(OC(F)(F)F)cc4)cc3)c(C)c(=O)c2c1
2. CCOC(=O)Oc1c(-c2ccc(Cc3ccc(OC(F)(F)F)cc3)cc2)c(C)nc2ccccc12
3. O=c1cc(-c2ccc(Cc3ccc(OC(F)(F)F)cc3)cc2)n(O)c2ccccc12
4. COc1cc2[nH]c(-c3ccc(Cc4ccc(OC(F)(F)F)cc4)cc3)cc(=O)c2cc1F
5. Cc1c(-c2ccc(Cc3ccc(OC(F)(F)F)cc3)cc2)n(O)c2ccccc2c1=O
6. COc1cccc2c(=O)c(C)c(-c3ccc(Cc4ccc(OC(F)(F)F)cc4)cc3)[nH]c12

Result:
1. 465
2. 27
3. 263
4. 39
5. 22
6. 381

====

- Test system: Plasmodium falciparum
- protocol.description: Antimalarial activity against blood stage forms of Plasmodium falciparum 3D7
- Type: functional, organism-based
pIC50: −log10 of the molar value.
recorded.endpoint: pIC50

Below, each entry is followed by its recorded pIC50 result.
Cc1c(-c2ccc(OC(F)(F)F)cc2)[nH]c2ccccc2c1=O    < 6.00
O=c1cc(-c2ccc(Cc3ccc(CO)cc3)cc2)[nH]c2ccccc12    < 6.00

// for each compound in input: emit pIC50
1. Cc1c(-c2ccc(Oc3ccc(OCCN4CCOCC4)cc3)cc2)[nH]c2ccccc2c1=O
2. COc1ccc(-c2[nH]c3ncccc3c(=O)c2C)cc1

Result:
1. < 6.00
2. < 6.00

// for each compound in input: emit pIC50
1. Cc1c(-c2ccc(OC(F)(F)F)cc2)[nH]c2ncccc2c1=O
2. COc1ccc(-c2cc(=O)c3ccccc3[nH]2)cc1

Result:
1: < 6.00; 2: < 6.00

// for each compound in input: emit pIC50
1. Cc1c(-c2ccc(C(F)(F)F)cc2)[nH]c2ncccc2c1=O
2. CCOC(=O)c1c(-c2ccc(Cc3ccc(OC(F)(F)F)cc3)cc2)[nH]c2cc(Cl)ccc2c1=O
3. COc1ccc(-c2[nH]c3ccccc3c(=O)c2Cl)cc1
4. Cc1c(-c2ccc(Oc3cccc(OCCN4CCOCC4)c3)cc2)[nH]c2ccccc2c1=O

Result:
1. < 6.00
2. 7.59
3. 6.25
4. 6.14
